# SUBJECT OF TEST: EPH-B3 (Homo sapiens, UniProt P54753)
# Sequence (P54753 34-998): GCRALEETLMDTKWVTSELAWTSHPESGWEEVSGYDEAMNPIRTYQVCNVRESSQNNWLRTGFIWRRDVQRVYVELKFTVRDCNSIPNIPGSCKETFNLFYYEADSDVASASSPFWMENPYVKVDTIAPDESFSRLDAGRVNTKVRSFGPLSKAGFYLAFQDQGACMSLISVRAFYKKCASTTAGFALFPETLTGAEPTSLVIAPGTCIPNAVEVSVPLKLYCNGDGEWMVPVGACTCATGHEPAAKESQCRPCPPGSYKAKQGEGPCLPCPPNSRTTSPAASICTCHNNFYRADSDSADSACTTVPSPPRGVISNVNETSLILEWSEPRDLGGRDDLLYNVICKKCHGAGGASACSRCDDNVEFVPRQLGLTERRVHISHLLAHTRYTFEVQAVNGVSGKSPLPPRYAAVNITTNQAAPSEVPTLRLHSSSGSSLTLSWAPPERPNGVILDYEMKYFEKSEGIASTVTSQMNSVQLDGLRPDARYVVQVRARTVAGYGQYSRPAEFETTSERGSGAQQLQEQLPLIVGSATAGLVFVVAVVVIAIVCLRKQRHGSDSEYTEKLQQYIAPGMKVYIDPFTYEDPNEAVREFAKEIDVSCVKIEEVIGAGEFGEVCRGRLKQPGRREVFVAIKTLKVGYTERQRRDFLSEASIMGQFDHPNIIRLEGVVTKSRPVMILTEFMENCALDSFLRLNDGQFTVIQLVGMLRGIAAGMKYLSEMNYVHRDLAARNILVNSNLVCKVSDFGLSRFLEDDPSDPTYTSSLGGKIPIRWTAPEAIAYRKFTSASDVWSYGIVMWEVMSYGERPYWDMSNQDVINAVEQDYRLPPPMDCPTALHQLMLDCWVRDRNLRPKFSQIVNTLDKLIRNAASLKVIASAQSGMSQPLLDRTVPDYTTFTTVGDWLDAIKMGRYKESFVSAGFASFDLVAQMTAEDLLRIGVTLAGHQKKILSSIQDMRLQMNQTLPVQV
# EXPERIMENT NOTES: Kinase profiling (radiometric filter-binding)
# Type: biochemical
# CONDITION: EPH-B3, 1 µM inhibitor; read-out: Residual activity, %
Square brackets hold non-standard residues; d marks the D form. Peptide text beside a SMILES is read from it. * marks the point of attachment. X3 = O=C(CCCCCNCc1nc2c(sc3cc(Br)cnc32)c(=O)[nH]1)*
Answer each item with its documented remaining activity at 1 µM.
Return type: number; implicit unit %.

[ask] What measured remaining activity at 1 µM is associated with N=C(N)NCCC[C@@H](NC(=O)CNC(=O)[C@@H](CCCNC(=N)N)NC(=O)[C@@H](CCCNC(=N)N)NC(=O)Cn1cc(CNCc2nc3c(sc4ccc(Br)cc43)c(=O)[nH]2)nn1)C(=O)N[C@H](CCCCN)C(N)=O [Compound 3, BBTP-Amt-(D-Arg)2-Gly-D-Arg-D-Lys-NH2] on EPH-B3 (Homo sapiens, UniProt P54753)?
[reply] 79

[ask] Lab note: need remaining activity at 1 µM with EPH-B3 (Homo sapiens, UniProt P54753) for entry N=C(N)NCCC[C@@H](NC(=O)CNC(=O)[C@@H](CCCNC(=N)N)NC(=O)[C@@H](CCCNC(=N)N)NC(=O)CCCCCCCNCc1nc2c(sc3cc(Br)cnc32)c(=O)[nH]1)C(=O)N[C@H](CCCCN)C(N)=O [Compound 1, BPTP-Aoc-(D-Arg)2-Gly-D-Arg-D-Lys-NH2] , please look it up.
[reply] 107

[ask] Lab request: please report remaining activity at 1 µM under test system EPH-B3 (Homo sapiens, UniProt P54753) for N=C(N)NCCC[C@@H](NC(=O)CCCCCNC(=O)Cn1cnc2c(I)c(I)c(I)c(I)c21)C(=O)N[C@H](CCCNC(=N)N)C(=O)N[C@H](CCCNC(=N)N)C(=O)N[C@H](CCCNC(=N)N)C(=O)N[C@H](CCCNC(=N)N)C(=O)N[C@H](CCCNC(=N)N)C(=O)N[C@H](CCCCN)C(N)=O [ARC-3125, TIBI-CH2-C(=O)-Ahx-(D-Arg)6-D-Lys-NH2]
[reply] 104

[ask] GET /values?readout=remaining activity at 1 µM&system=EPH-B3 (Homo sapiens, UniProt P54753)&item= N=C(N)NCCC[C@@H](NC(=O)CNC(=O)[C@@H](CCCNC(=N)N)NC(=O)[C@@H](CCCNC(=N)N)NC(=O)CCCCCCCNCc1nc2c(sc3ccc(Br)cc32)c(=O)[nH]1)C(=O)N[C@H](CCCCN)C(N)=O [Compound 2, BBTP-Aoc-(D-Arg)2-Gly-D-Arg-D-Lys-NH2]
[reply] 106

[ask] Look up remaining activity at 1 µM with EPH-B3 (Homo sapiens, UniProt P54753) for this compound: N=C(N)NCCC[C@@H](NC(=O)CCCCCNCc1nc2c(sc3cc(Br)cnc32)c(=O)[nH]1)C(=O)N[C@H](CCCNC(=N)N)C(=O)N[C@H](CCCNC(=N)N)C(=O)N[C@H](CCCNC(=N)N)C(=O)N[C@H](CCCNC(=N)N)C(=O)N[C@H](CCCNC(=N)N)C(=O)N[C@H](CCCCN)C(N)=O [ARC-3126, BPTP-Ahx-(D-Arg)6-D-Lys-NH2] (X3-[dR][dR][dR][dR][dR][dR][dK]-NH2)
[reply] 94

* * *

# SUBJECT OF TEST: JNK3 (Homo sapiens)
# Sequence (P53779 whole entry): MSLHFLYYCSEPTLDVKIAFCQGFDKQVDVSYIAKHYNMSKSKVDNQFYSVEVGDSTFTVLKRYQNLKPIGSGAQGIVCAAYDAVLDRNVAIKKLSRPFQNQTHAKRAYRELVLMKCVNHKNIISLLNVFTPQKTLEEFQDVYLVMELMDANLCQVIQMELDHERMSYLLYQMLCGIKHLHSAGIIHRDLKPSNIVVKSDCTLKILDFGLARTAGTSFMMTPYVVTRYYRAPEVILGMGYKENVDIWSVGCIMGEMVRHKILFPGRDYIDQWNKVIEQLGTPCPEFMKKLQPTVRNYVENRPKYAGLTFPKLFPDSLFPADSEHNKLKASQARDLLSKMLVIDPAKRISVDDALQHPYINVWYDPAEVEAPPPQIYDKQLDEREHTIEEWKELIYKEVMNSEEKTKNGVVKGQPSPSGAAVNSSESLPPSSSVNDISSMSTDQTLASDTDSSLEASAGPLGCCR
# EXPERIMENT NOTES: Kinase profiling (radiometric filter-binding)
# Type: biochemical
# CONDITION: JNK3, 1 µM inhibitor; read-out: Residual activity, %
Square brackets hold non-standard residues; d marks the D form. Peptide text beside a SMILES is read from it. * marks the point of attachment. X3 = O=C(CCCCCNCc1nc2c(sc3cc(Br)cnc32)c(=O)[nH]1)*
Please provide measured remaining activity at 1 µM for the entries that follow.
Field: numeric (%). Do not append units.

[ask] Returns the measured remaining activity at 1 µM for the input molecule. Input: `N=C(N)NCCC[C@@H](NC(=O)CNC(=O)[C@@H](CCCNC(=N)N)NC(=O)[C@@H](CCCNC(=N)N)NC(=O)CCCCCCCNCc1nc2c(sc3ccc(Br)cc32)c(=O)[nH]1)C(=O)N[C@H](CCCCN)C(N)=O`
[reply] 108

[ask] Suppose we examine the molecule N=C(N)NCCC[C@@H](NC(=O)CCCCCNCc1nc2c(sc3cc(Br)cnc32)c(=O)[nH]1)C(=O)N[C@H](CCCNC(=N)N)C(=O)N[C@H](CCCNC(=N)N)C(=O)N[C@H](CCCNC(=N)N)C(=O)N[C@H](CCCNC(=N)N)C(=O)N[C@H](CCCNC(=N)N)C(=O)N[C@H](CCCCN)C(N)=O [ARC-3126, BPTP-Ahx-(D-Arg)6-D-Lys-NH2] (X3-[dR][dR][dR][dR][dR][dR][dK]-NH2) ; what remaining activity at 1 µM value has been reported?
[reply] 121

[ask] Please give the measured remaining activity at 1 µM for this molecule: `N=C(N)NCCC[C@@H](NC(=O)CNC(=O)[C@@H](CCCNC(=N)N)NC(=O)[C@@H](CCCNC(=N)N)NC(=O)CCCCCCCNCc1nc2c(sc3cc(Br)cnc32)c(=O)[nH]1)C(=O)N[C@H](CCCCN)C(N)=O`
[reply] 92

[ask] Param item = `N=C(N)NCCC[C@@H](NC(=O)CNC(=O)[C@@H](CCCNC(=N)N)NC(=O)[C@@H](CCCNC(=N)N)NC(=O)Cn1cc(CNCc2nc3c(sc4ccc(Br)cc43)c(=O)[nH]2)nn1)C(=O)N[C@H](CCCCN)C(N)=O` ; retrieve measured remaining activity at 1 µM.
[reply] 113

[ask] Endpoint output: remaining activity at 1 µM of `N=C(N)NCCC[C@@H](NC(=O)CCCCCNC(=O)Cn1cnc2c(I)c(I)c(I)c(I)c21)C(=O)N[C@H](CCCNC(=N)N)C(=O)N[C@H](CCCNC(=N)N)C(=O)N[C@H](CCCNC(=N)N)C(=O)N[C@H](CCCNC(=N)N)C(=O)N[C@H](CCCNC(=N)N)C(=O)N[C@H](CCCCN)C(N)=O` . Value?
[reply] 120

* * *

# SUBJECT OF TEST: PIM2 (Homo sapiens, UniProt Q9P1W9)
# Sequence (Q9P1W9 whole entry): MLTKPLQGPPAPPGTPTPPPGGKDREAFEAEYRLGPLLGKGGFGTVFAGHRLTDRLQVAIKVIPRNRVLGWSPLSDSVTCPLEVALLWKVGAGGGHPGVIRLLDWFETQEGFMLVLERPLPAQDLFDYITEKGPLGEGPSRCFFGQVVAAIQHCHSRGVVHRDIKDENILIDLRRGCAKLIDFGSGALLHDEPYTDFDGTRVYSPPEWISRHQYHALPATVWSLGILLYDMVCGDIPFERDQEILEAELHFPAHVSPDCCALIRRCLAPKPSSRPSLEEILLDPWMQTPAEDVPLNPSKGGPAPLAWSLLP
# EXPERIMENT NOTES: Binding/displacement assay with FA or TGLI readout
# Design: made in house
# CONDITION: mean ± SEM, N = 2
For each entry below, report its Kd value.
Supply the numeric figure in nM, leaving out any unit text.

[ask] I would be grateful if you could share the reported Kd for `N=C(N)NCCC[C@@H](NC(=O)CNC(=O)[C@@H](CCCNC(=N)N)NC(=O)[C@@H](CCCNC(=N)N)NC(=O)Cn1cc(CNCc2nc3c(sc4ccc(Br)cc43)c(=O)[nH]2)nn1)C(=O)N[C@H](CCCCN)C(N)=O` .
[reply] 9.9

[ask] Field request: Kd | item: `CN(C)c1ccc2c(c1)Oc1cc(N(C)C)ccc1C21OC(=O)c2cc(C(=O)NCCCC[C@@H](NC(=O)[C@@H](CCCNC(=N)N)NC(=O)CNC(=O)[C@@H](CCCNC(=N)N)NC(=O)[C@@H](CCCNC(=N)N)NC(=O)CCCCc3cn(Cc4nc5c(sc6ccc(Br)cc65)c(=O)[nH]4)nn3)C(N)=O)ccc21`
[reply] 157

Origin of measurements: paper PMC8307404
